# test-system: human mGlu2 receptor (Homo sapiens, UniProt Q14416)
# Sequence (Q14416 19-872): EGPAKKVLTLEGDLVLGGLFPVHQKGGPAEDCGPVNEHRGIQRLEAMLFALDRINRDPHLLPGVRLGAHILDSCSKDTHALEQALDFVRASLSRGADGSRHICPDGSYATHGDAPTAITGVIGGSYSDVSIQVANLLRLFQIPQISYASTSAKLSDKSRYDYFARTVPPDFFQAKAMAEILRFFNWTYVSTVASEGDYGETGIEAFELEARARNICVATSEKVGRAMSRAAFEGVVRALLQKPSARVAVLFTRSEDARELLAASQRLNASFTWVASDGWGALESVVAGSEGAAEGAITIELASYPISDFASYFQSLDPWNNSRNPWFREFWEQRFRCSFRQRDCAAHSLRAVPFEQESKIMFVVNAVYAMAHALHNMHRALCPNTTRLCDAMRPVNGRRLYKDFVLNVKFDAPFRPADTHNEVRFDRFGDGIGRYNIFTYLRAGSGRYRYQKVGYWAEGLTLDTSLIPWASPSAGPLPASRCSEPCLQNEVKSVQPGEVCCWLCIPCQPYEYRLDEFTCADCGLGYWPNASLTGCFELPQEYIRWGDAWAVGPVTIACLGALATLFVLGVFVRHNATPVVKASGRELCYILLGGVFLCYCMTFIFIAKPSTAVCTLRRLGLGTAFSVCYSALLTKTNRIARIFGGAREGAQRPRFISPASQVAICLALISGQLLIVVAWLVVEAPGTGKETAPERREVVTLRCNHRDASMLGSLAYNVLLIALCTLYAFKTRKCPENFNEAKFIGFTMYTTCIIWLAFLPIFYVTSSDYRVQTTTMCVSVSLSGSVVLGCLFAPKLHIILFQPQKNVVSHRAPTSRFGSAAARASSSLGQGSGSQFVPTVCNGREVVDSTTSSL
# test: [35S]GTPγS binding assay, negative allosteric modulation of mGluR2
Measured pIC50 by item
Reminder that pIC50 means the negative base-10 logarithm of the concentration expressed in mol/L.

Some compounds with known pIC50 results, for comparison:
compound | recorded-measurement
Cc1ccc(C#Cc2cnn3c2C(=O)N(c2ccc(C(F)(F)F)cc2)C[C@@H]3C)cn1 | 7.99
C[C@H]1CN(c2ccc(C(F)(F)F)cc2)C(=O)c2c(C#Cc3cncc(CF)c3)cnn21 | 7.43
C[C@H]1CN(c2ccc(C(F)(F)F)cc2)C(=O)c2c(C#Cc3cccc(S(=O)(=O)F)c3)cnn21 | 7.84
Cc1cc(C#Cc2cnn3c2C(=O)N(c2ccc(C(F)(F)F)cc2)C[C@@H]3C)ccn1 | 8.06
C[C@H]1CN(c2ccc(C(F)C(F)(F)F)cc2)C(=O)c2c(C#Cc3ccc(N)nc3)cnn21 (stereo partly shown) | 8.15
C[C@H]1CN(c2ccc(Cl)c(Cl)c2)C(=O)c2c(C#Cc3ccc(N)nc3)cnn21 | 8.95
C[C@H]1CN(c2ccc(C(F)(F)F)c(F)c2)C(=O)c2c(C#Cc3ccc(N)nc3)cnn21 | 8.57
C[C@H]1CN(c2ccc(C(F)(F)F)cc2)C(=O)c2c(C#Cc3ccc(N)nc3)cnn21 | 8.80
CNc1ccc(C#Cc2cnn3c2C(=O)N(c2ccc(C(F)(F)F)c(Cl)n2)C[C@@H]3C)cn1 | 8.06
COCc1cncc(C#Cc2cnn3c2C(=O)N(c2ccc(C(F)(F)F)cc2)C[C@@H]3C)c1 | 7.01

For `COCc1cc(N)ncc1C#Cc1cnn2c1C(=O)N(c1ccc(C(F)(F)F)cc1)C[C@@H]2C` , what is its reported pIC50?
8.65

For `CNc1ccc(C#Cc2cnn3c2C(=O)N(c2ccc(C(F)(F)F)c(OC)n2)C[C@@H]3C)cn1` , what is its reported pIC50?
8.03

For `C[C@H]1CN(c2ccc(Cl)c(Cl)c2)C(=O)c2c(C#Cc3ccc(N(C)C)nc3)cnn21` , what is its reported pIC50?
7.48

For `C[C@H]1CN(c2ccc(C(F)(F)F)c(Cl)c2)C(=O)c2c(C#Cc3ccc(N)nc3)cnn21` , what is its reported pIC50?
8.96

For `C[C@H]1CN(c2ccc(C(F)(F)F)c(Cl)c2)C(=O)c2c(C#Cc3cnc(N)cc3CO)cnn21` , what is its reported pIC50?
9.08

For `C[C@H]1CN(c2ccc(C(F)(F)F)cc2)C(=O)c2c(C#Cc3cccnc3N)cnn21` , what is its reported pIC50?
7.83

----------
# test-system: human mGlu2 receptor (Homo sapiens, UniProt Q14416)
# test: [35S]GTPγS binding assay, negative allosteric modulation of mGluR2
# measurement-conditions: read-out: GTPγS - hmGluR2 anGT Emax
property-name: Emax (%)
# number only, unit % dropped from output

Some compounds with known Emax results, for comparison:
compound | Emax (%)
C[C@H]1CN(c2ccc(Cl)c(Cl)c2)C(=O)c2c(C#Cc3ccc(N)nc3)cnn21 [compound 2] | 105
C[C@H]1CN(c2ccc(C(F)(F)F)cc2)C(=O)c2c(C#Cc3cnc(N)cc3CF)cnn21 [compound 23] | 106
COc1ccc(C#Cc2cnn3c2C(=O)N(c2ccc(Cl)c(Cl)c2)C[C@@H]3C)cn1 [compound 6] | 106
C[C@H]1CN(c2ccc(Cl)c(Cl)c2)C(=O)c2c(C#Cc3ccc(N(C)C)nc3)cnn21 [compound 12] | 107

For C[C@H]1CN(c2ccc(C(F)(F)F)c(Cl)c2)C(=O)c2c(C#Cc3ccc(N)nc3)cnn21 [compound 13] , what is its reported Emax?
108

For C[C@H]1CN(c2ccc(C(F)(F)F)cc2)C(=O)c2c(C#Cc3ccc(N)nc3)cnn21 [compound 1] , what is its reported Emax?
106

For COc1ccc(N2C[C@H](C)n3ncc(C#Cc4ccc(N)nc4)c3C2=O)cc1Cl [compound 8] , what is its reported Emax?
107

For Cc1ccc(C#Cc2cnn3c2C(=O)N(c2ccc(C(F)(F)F)cc2)C[C@@H]3C)cn1 [compound 11] , what is its reported Emax?
103

For C[C@H]1CN(c2ccc(C(F)(F)F)c(CF)n2)C(=O)c2c(C#Cc3ccc(N)nc3)cnn21 [compound 19] , what is its reported Emax?
104

For C[C@H]1CN(c2ccc(C(F)(F)F)cc2)C(=O)c2c(C#Cc3cccnc3N)cnn21 [compound 17] , what is its reported Emax?
105

----------
Measured pIC50 by item
# test-system: human mGlu2 receptor (Homo sapiens, UniProt Q14416)
# test: [35S]GTPγS binding assay, negative allosteric modulation of mGluR2
Reminder that pIC50 means the negative base-10 logarithm of the concentration expressed in mol/L.

compound-structure | pIC50
C[C@H]1CN(c2ccc(Cl)c(Cl)c2)C(=O)c2c(C#Cc3ccc(F)nc3)cnn21 | 8.17
COCc1cc(C#Cc2cnn3c2C(=O)N(c2ccc(C(F)(F)F)cc2)C[C@@H]3C)cnc1N | 7.62
COc1ccc(C#Cc2cnn3c2C(=O)N(c2ccc(Cl)c(Cl)c2)C[C@@H]3C)cn1 | 8.25

# context switch: different compound, same pIC50
Request: pIC50, test system human mGlu2 receptor (Homo sapiens, UniProt Q14416), entry `C[C@H]1CN(c2ccc(C(F)(F)F)cc2)C(=O)c2c(C#Cc3cnc(N)cc3CO)cnn21`
8.53

----------
Measured Emax by item
# test-system: UniProt:Q14416
# test: [35S]GTPγS binding assay, negative allosteric modulation of mGluR2
# measurement-conditions: read-out: GTPγS - hmGluR2 anGT Emax

compound | test-system | Emax
C[C@H]1CN(c2ccc(C(F)C(F)(F)F)cc2)C(=O)c2c(C#Cc3ccc(N)nc3)cnn21 (stereo partly drawn) | UniProt:Q14416 | 104%
C[C@H]1CN(c2ccc(C(F)(F)F)cn2)C(=O)c2c(C#Cc3ccc(N)nc3)cnn21 | UniProt:Q14416 | 103%
CNc1ccc(C#Cc2cnn3c2C(=O)N(c2ccc(Cl)c(Cl)c2)C[C@@H]3C)cn1 | UniProt:Q14416 | 105%

For `Cc1cc(C#Cc2cnn3c2C(=O)N(c2ccc(C(F)(F)F)cc2)C[C@@H]3C)ccn1` , what is its reported Emax?
107%

For `C[C@H]1CN(c2ccc(C(F)(F)F)cc2)C(=O)c2c(C#Cc3ccc(S(=O)(=O)F)cc3)cnn21` , what is its reported Emax?
108%

----------
Measured Emax by item
# test-system: human mGlu2 receptor (Homo sapiens)
# test: [35S]GTPγS binding assay, negative allosteric modulation of mGluR2
# measurement-conditions: read-out: GTPγS - hmGluR2 anGT Emax
# number only, unit % dropped from output

compound | Emax (%)
C[C@H]1CN(c2ccc(C(F)(F)F)c(F)c2)C(=O)c2c(C#Cc3ccc(N)nc3)cnn21 [compound 18] | 107
COc1nc(N2C[C@H](C)n3ncc(C#Cc4ccc(N)nc4)c3C2=O)ccc1C(F)(F)F [compound 33] | 109
C[C@H]1CN(c2ccc(C(F)(F)F)cc2)C(=O)c2c(C#Cc3cnc(N)cc3CO)cnn21 [compound 29] | 106
C[C@H]1CN(c2ccc(C(F)(F)F)cc2)C(=O)c2c(C#Cc3cnc(N)c(CF)c3)cnn21 [compound 21] | 102
C[C@H]1CN(c2ccc(C(F)(F)F)cc2)C(=O)c2c(C#Cc3cncc(CO)c3)cnn21 [compound 28] | 101

For COCc1cncc(C#Cc2cnn3c2C(=O)N(c2ccc(C(F)(F)F)cc2)C[C@@H]3C)c1 [compound 27] , what is its reported Emax?
106

----------
# test-system: human mGlu2 receptor (Homo sapiens, UniProt Q14416)
# test: [35S]GTPγS binding assay, negative allosteric modulation of mGluR2;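 also: membranes from CHO cells expressing the receptor, compound with glutamate near EC80 (60 µM), 30 min preincubation then 30 min label uptake at 30 °C, percent of control glutamate response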
# measurement-conditions: read-out: GTPγS - hmGluR2 anGT Emax
Measured Emax by item
# number only, unit % dropped from output

compound | Emax [%]
C[C@H]1CN(c2ccc(Cl)c(Cl)c2)C(=O)c2c(C#Cc3ccc(F)nc3)cnn21 [compound 7] | 105

For C[C@H]1CN(c2ccc(C(F)(F)F)cc2)C(=O)c2c(C#Cc3ccccc3)cnn21 [compound 5] , what is its reported Emax?
105

For CNc1ncccc1C#Cc1cnn2c1C(=O)N(c1ccc(C(F)(F)F)cc1)C[C@@H]2C [compound 24] , what is its reported Emax?
99

For COCc1cc(C#Cc2cnn3c2C(=O)N(c2ccc(C(F)(F)F)cc2)C[C@@H]3C)cnc1N [compound 20] , what is its reported Emax?
102

Data credit: patent US10112949B2
